All figures here come from patent US10919885B2.

# measured-target: human SCD1 (Homo sapiens (Human))
# Sequence (O00767 whole entry): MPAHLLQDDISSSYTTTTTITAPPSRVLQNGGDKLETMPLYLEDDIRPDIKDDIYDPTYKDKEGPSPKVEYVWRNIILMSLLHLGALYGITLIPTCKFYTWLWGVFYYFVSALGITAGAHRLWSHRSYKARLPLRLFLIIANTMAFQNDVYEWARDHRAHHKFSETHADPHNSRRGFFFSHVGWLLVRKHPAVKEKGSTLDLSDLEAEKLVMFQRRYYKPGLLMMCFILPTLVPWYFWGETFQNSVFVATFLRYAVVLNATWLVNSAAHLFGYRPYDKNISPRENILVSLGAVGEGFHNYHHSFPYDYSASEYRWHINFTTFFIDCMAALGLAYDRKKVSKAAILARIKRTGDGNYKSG
# measurement-notes: Yeast growth assay, strain expressing human SCD1 as the sole desaturase (reduced growth as surrogate for SCD inhibition)
# test-conditions: yeast with OLE1 deleted expressing human SCD1 from a plasmid; growth read as OD600 after 40 h at 30° C.; top drug concentration 33.3 μM
pIC50: −log10 of the molar value.
measurement-type: pIC50

# compound, measured-target, observed-value
measured = [
    ("C[C@@H]1CCCN1C(=O)c1cc(-c2ccc3c(c2)OCO3)on1 [Compound 370]", "human SCD1 (Homo sapiens (Human))", "< 4.35"),
    ("O=C(Nc1cnn(Cc2ccccc2)c1)c1cc(-c2ccncc2Cl)on1 [Compound 134]", "human SCD1 (Homo sapiens (Human))", 5.27),
    ("O=C(c1cc(-c2ccccc2)on1)N1CCC(Oc2ccccc2)CC1 [Compound 288]", "human SCD1 (Homo sapiens (Human))", "< 4.35"),
    ("O=C(c1cc(-c2ccc3c(c2)OCO3)on1)N1CCCC1c1ccc(F)cc1 (stereo not drawn) [Compound 368]", "human SCD1 (Homo sapiens (Human))", "< 4.35"),
    ("O=C(Nc1cnn(CCCC(F)(F)F)c1)c1cc(-c2ccco2)on1 [Compound 34]", "human SCD1 (Homo sapiens (Human))", "< 4.35"),
    ("O=C(c1cc(-c2ccccc2)on1)N1CC(Cc2ccccc2)C1 [Compound 211]", "human SCD1 (Homo sapiens (Human))", 6.92),
    ("O=C(c1cc(-c2ccc3c(c2)OCO3)on1)N1CC2(CC(c3ccccc3)C2)C1 [Compound 228]", "human SCD1 (Homo sapiens (Human))", 4.43),
    ("O=C(c1cc(-c2ccc3c(c2)OCO3)on1)N1CCC1c1ccccc1F (stereo not drawn) [Compound 218]", "human SCD1 (Homo sapiens (Human))", "< 4.35"),
    ("O=C(c1cc(-c2ccccc2)on1)N1CCC(O)(c2ccccc2)CC1 [Compound 296]", "human SCD1 (Homo sapiens (Human))", "< 4.35"),
    ("O=C(Nc1cnn(Cc2cc(F)ccc2Cl)c1)c1cc(-c2ccco2)on1 [Compound 28]", "human SCD1 (Homo sapiens (Human))", "< 4.35"),
    ("O=C(c1ccncc1)N1CCN(C(=O)c2cc(-c3ccc4c(c3)OCO4)on2)CC1 [Compound 276]", "human SCD1 (Homo sapiens (Human))", "< 4.35"),
    ("O=C(c1cc(-c2ccc3c(c2)OCO3)on1)N1CCCC1c1ncccc1Br (stereo not drawn) [Compound 447]", "human SCD1 (Homo sapiens (Human))", "< 4.35"),
    ("O=C(c1cc(-c2ccc3c(c2)OCO3)on1)N1CCCC1c1ccccc1C(F)F (stereo not drawn) [Compound 331]", "human SCD1 (Homo sapiens (Human))", "< 4.35"),
    ("O=C(c1cc(-c2ccc3c(c2)OCO3)on1)N1CCCC1c1ccccn1 (stereo not drawn) [Compound 361]", "human SCD1 (Homo sapiens (Human))", "< 4.35"),
    ("O=C(Nc1cnn(Cc2ccccc2C(F)(F)F)c1)c1cc(-c2ccco2)on1 [Compound 14]", "human SCD1 (Homo sapiens (Human))", "< 4.35"),
    ("O=C(Nc1cnn(Cc2cccc(F)c2)c1)c1cc(C2(O)CCC2)on1 [Compound 100]", "human SCD1 (Homo sapiens (Human))", 5.51),
    ("O=C(Nc1cnn(Cc2cc(F)ccc2C(F)(F)F)c1)c1cc(-c2ccco2)on1 [Compound 36]", "human SCD1 (Homo sapiens (Human))", "< 4.35"),
    ("N#Cc1ccccc1-c1cc(C(=O)N2CCC[C@H]2c2ccccc2)no1 [Compound 402]", "human SCD1 (Homo sapiens (Human))", "< 4.35"),
]
